Measured growth inhibition, listed per entry.
assay: NCI Yeast Anticancer Drug Screen. Data for the mlh1 rad18 strain (AID 175); settings: S. cerevisiae mlh1 rad18 strain growth inhibition; at 50.0 µM; stronger effect = higher value
About 79,000 compounds went through this panel and 15% of them were active in at least one assay; those are over-represented in the sample as a whole. The source made the active and inactive calls. Cut-off read from the data, not from the text of the source: active = growth inhibition above about 70%; inactive = the rest.

These solved cases illustrate the format of a correct answer.
[
  {
    "COMPOUND": "O=C(NC(=S)Nc1cc(C(F)(F)F)ccc1Cl)c1ccccc1F",
    "VALUE_KIND": "growth inhibition",
    "RECORDED_MEASUREMENT": "4.95% (inactive)"
  },
  {
    "COMPOUND": "O=C(CC(=O)CC(O)(C(F)(F)F)C(F)(F)F)CC(O)(C(F)(F)F)C(F)(F)F",
    "VALUE_KIND": "growth inhibition",
    "RECORDED_MEASUREMENT": "78.2% (active)"
  },
  {
    "COMPOUND": "CCOC(=O)C1CC(=O)NC(N)=N1 (configuration not stated)",
    "VALUE_KIND": "growth inhibition",
    "RECORDED_MEASUREMENT": "-14.2% (inactive)"
  },
  {
    "COMPOUND": "Clc1ccc(-n2ncc3c2-c2ccccc2CCC3)cc1",
    "VALUE_KIND": "growth inhibition",
    "RECORDED_MEASUREMENT": "34.3% (inactive)"
  },
  {
    "COMPOUND": "Cc1ccc(NS(=O)(=O)c2ccc(F)cc2)cc1Cl",
    "VALUE_KIND": "growth inhibition",
    "RECORDED_MEASUREMENT": "99.8% (active)"
  }
]

QUERY: Requested field: growth inhibition. Item: "COc1cc(C(C)(C)C)c2oc3c(c2c1)C(=O)C(C(C)(C)C)=CC3(OC)OC"
RESULT: -1.65% (inactive)

QUERY: Requested field: growth inhibition. Item: "O=C1c2ccccc2C(=O)N1CCS(=O)(=O)CCS(=O)(=O)CCN1C(=O)c2ccccc2C1=O"
RESULT: 4.5% (inactive)

QUERY: Requested field: growth inhibition. Item: "COC(=O)Cc1c(C(C)=O)[nH]c2ccccc12"
RESULT: 13.1% (inactive)

QUERY: Requested field: growth inhibition. Item: CCOC(=O)COC(=O)C1C(C(N)=O)N(CC(=O)OCC)CCN1CC(=O)OCC (configuration not stated)
RESULT: 2.25% (inactive)

QUERY: Requested field: growth inhibition. Item: "Brc1ccccc1N=Nc1ccccc1Br"
RESULT: -20.5% (inactive)

QUERY: Requested field: growth inhibition. Item: "CC(=O)Nc1cccc(NC(C)=O)c1"
RESULT: 11.2% (inactive)

QUERY: Requested field: growth inhibition. Item: "CCCCCCN1CCc2c(C)c(C#N)c3nc4ccccc4n3c21"
RESULT: 21.8% (inactive)

---

assay: NCI Yeast Anticancer Drug Screen. Data for the sgs1 mgt1 strain (AID 161);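 note: 0% = growth of cultures given vehicle only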; details: S. cerevisiae sgs1 mgt1 strain, at 50.0 µM, stronger effect = higher value
About 79,000 compounds went through this panel and 15% of them were active in at least one assay; those are over-represented in the sample as a whole.
Measured growth inhibition, listed per entry.
Unit % implied. Number only.

These solved cases illustrate the format of a correct answer.
[
  {
    "COMPOUND": "CCOC(=O)C(Cc1cccc2ccccc12)(NC(C)=O)C(=O)OCC",
    "growth inhibition (%)": -5.95
  },
  {
    "COMPOUND": "C=CCOC(=O)Nc1ccc(S(=O)(=O)CC)cc1",
    "growth inhibition (%)": -4.55
  },
  {
    "COMPOUND": "Cn1c(=N)n(CC(=O)NC23CC4CC(CC(C4)C2)C3)c2ccccc21",
    "growth inhibition (%)": -26.9
  }
]

QUERY: Requested field: growth inhibition. Item: CC1(C)Oc2ccc3c(=O)cc(-c4ccccc4)oc3c2C1C(=O)O (stereo unspecified)
RESULT: -18.6

QUERY: Requested field: growth inhibition. Item: "CC1=C/C(=N/Nc2ccc([N+](=O)[O-])cc2[N+](=O)[O-])CC(C)(C)C1"
RESULT: 18.4

QUERY: Requested field: growth inhibition. Item: c1cn(C23C4C5C6C4C2C6C53)cn1 (stereo unspecified)
RESULT: 2.5

---

Measured growth inhibition, listed per entry.
assay: NCI Yeast Anticancer Drug Screen. Data for the cln2 rad14 strain (AID 165);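 note: 0% = growth equal to vehicle treated cultures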; settings: S. cerevisiae cln2 rad14 strain, at 50.0 µM, stronger effect = higher value
Compounds without any hit were thinned out: in the full panel of roughly 79,000, 15% have a hit.
Unit % implied. Number only.

These solved cases illustrate the format of a correct answer.
[
  {
    "COMPOUND": "CC(O)C(=O)N(CCO)CCO (stereo not drawn)",
    "VALUE_KIND": "growth inhibition",
    "RECORDED_MEASUREMENT": -35.8
  },
  {
    "COMPOUND": "COc1ccc(N2C(=O)C3c4[nH]c5ccccc5c4C4CCC(C(C)(C)C)CC4C3C2=O)cc1OC (stereo not drawn)",
    "VALUE_KIND": "growth inhibition",
    "RECORDED_MEASUREMENT": -3.4
  },
  {
    "COMPOUND": "CCN(CC)CC1CCCCCCCCCCC1=O (stereo not drawn)",
    "VALUE_KIND": "growth inhibition",
    "RECORDED_MEASUREMENT": 17.4
  },
  {
    "COMPOUND": "C/C(=N\\N)c1ccc(Cl)cc1O",
    "VALUE_KIND": "growth inhibition",
    "RECORDED_MEASUREMENT": 4.25
  }
]

Please look at the following compound next.
QUERY: Requested field: growth inhibition. Item: CCC(Nc1ncnc2nc[nH]c12)C(=O)O (stereo not drawn)
RESULT: -20.4

---

assay: NCI Yeast Anticancer Drug Screen. Data for the sgs1 mgt1 strain (AID 161);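 note: 0% = growth of cultures given vehicle only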; details: S. cerevisiae sgs1 mgt1 strain, at 50.0 µM, stronger effect = higher value
About 79,000 compounds went through this panel and 15% of them were active in at least one assay; those are over-represented in the sample as a whole. Active and inactive are the calls of the source. Rule as the data show it: active = growth inhibition above about 70%; inactive = the rest.
Measured growth inhibition, listed per entry.

These solved cases illustrate the format of a correct answer.
[
  {
    "COMPOUND": "CC1/C(=N/O)CC(c2ccccc2)N(N=O)C1c1ccccc1 (configuration not stated)",
    "growth inhibition": "57.5% (inactive)"
  },
  {
    "COMPOUND": "Cc1ccc(S(=O)(=O)OCC2C(COS(=O)(=O)c3ccc(C)cc3)C3C4C5C2C2C3C4C52)cc1 (configuration not stated)",
    "growth inhibition": "9.75% (inactive)"
  },
  {
    "COMPOUND": "Nc1ncnc2c1ccn2Cc1c(Cl)cccc1Cl",
    "growth inhibition": "7.1% (inactive)"
  },
  {
    "COMPOUND": "c1ccc(Sc2cc(Sc3ccccc3)c3cccccc2-3)cc1",
    "growth inhibition": "-27.4% (inactive)"
  },
  {
    "COMPOUND": "CSCC1CC(c2ccc(Cl)cc2)=NO1 (configuration not stated)",
    "growth inhibition": "1.05% (inactive)"
  },
  {
    "COMPOUND": "CCc1nc(N)nc(N)c1-c1ccc(Cl)c(S(=O)(=O)O)c1",
    "growth inhibition": "-9.8% (inactive)"
  }
]

Please look at the following compound next.
QUERY: Requested field: growth inhibition. Item: "CCCCCSc1ncnc2c1ncn2CO"
RESULT: 7.45% (inactive)

---

test: NCI Yeast Anticancer Drug Screen. Data for the rad50 strain (AID 155);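 note: 0% = growth of vehicle-only cultures of the same strain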; conditions: S. cerevisiae rad50 strain growth inhibition; at 50.0 µM; stronger effect = higher value
About 79,000 compounds went through this panel and 15% of them were active in at least one assay; those are over-represented in the sample as a whole.
Measured growth inhibition, listed per entry.
Unit % implied. Number only.

QUERY: Requested field: growth inhibition. Item: "CCN(CC)C1=Nc2ccccc2N(c2ccccc2)C(SC)=C1"
RESULT: -1.4

QUERY: Requested field: growth inhibition. Item: "O=C1C(=O)C(c2ccccc2)(c2ccccc2)C(=O)N1c1ccccc1"
RESULT: 29.6

QUERY: Requested field: growth inhibition. Item: COc1ccc(/C=C2/CSCC3=C2NC(=S)NC3c2ccc(OC)c(OC)c2OC)c(OC)c1OC (stereo unspecified)
RESULT: 12.8

QUERY: Requested field: growth inhibition. Item: [N-]=[N+]=NC1OC(=O)C(Cl)=C1N=P(c1ccccc1)(c1ccccc1)c1ccccc1 (stereo unspecified)
RESULT: 4.3

QUERY: Requested field: growth inhibition. Item: "CN(C(=O)c1ccc(C(=N)N)cc1)c1ccccc1"
RESULT: -8.3

QUERY: Requested field: growth inhibition. Item: COc1ccc(C(C)OC)cc1OC (stereo unspecified)
RESULT: -15

QUERY: Requested field: growth inhibition. Item: CN(C)C(=O)C1(C)CC2CCC1C2 (stereo unspecified)
RESULT: -2.25

QUERY: Requested field: growth inhibition. Item: "COc1cc(-c2c(C)c(C)nc(OC)c2C#N)cc(OC)c1OC"
RESULT: -1.05

QUERY: Requested field: growth inhibition. Item: "O=C1[C@@H]2[C@@H](c3ccccc3)[C@]2(Cl)C(=O)[C@H]2[C@H](c3ccccc3)[C@@]12Cl"
RESULT: 6.9

QUERY: Requested field: growth inhibition. Item: "COc1ccc(OC)c(NC(=O)OCc2ccc3c(c2)OCO3)c1"
RESULT: 1.25

QUERY: Requested field: growth inhibition. Item: "[O-][n+]1c(CN2CCCCC2)nc2cccc3c2c1-c1ccccc1-3"
RESULT: 33.4
